Listing: half-life at 3 µM of selected molecules
test-method-notes: Half life in human liver microsomes at 3 uM
Type: ADME, Microsome

molecule	lt-gt-eq	half-life at 3 µM [h]
NC(=O)c1cccc([C@H]2C[C@H]3CC[C@@H](C2)N3CCN(Cc2ccccc2)C(=O)CO)c1	=	1.5
CCCCCCN(CCN1[C@@H]2CC[C@H]1C[C@@H](c1cccc(C(N)=O)c1)C2)C(=O)CO	=	1.5
CS(=O)(=O)N(CCN1[C@@H]2CC[C@H]1C[C@@H](c1cccc(C(N)=O)c1)C2)CC1CCCCC1	=	0.317
C[N+]1(CC2CC2)CC[C@]23c4c5ccc(O)c4O[C@H]2C(=O)CC[C@@]3(O)[C@H]1C5.[Br-] (some centres undefined) [METHYLNALTREXONE BROMIDE]	>	1.5
